Experiment: microbe, parasite or virus in culture
Details: Mycobacterium tuberculosis, 96 h, read-out: pIC50 (converted)
Answer each item with its documented IC50.
Field: numeric (µM). Do not append units.

Data point: CCNCC(O)COc1ccc(C)cc1OC (stereo unspecified) ; IC50 = 10.5

Data point: Cc1ccc(CNCCOc2ccccn2)o1 ; IC50 = 98.7

Data point: N[C@@H]1C[C@H]1c1ccc2c(c1)OCCO2 ; IC50 = 196

Data point: COc1cc(C(=O)CCN(C)C)cc(OC)c1OC ; IC50 = 338

Data point: CC(C)C[C@H](N)COc1cccc(F)c1Oc1cccc(Cl)c1 ; IC50 = 22.6

Data point: Cc1ccc(CN2CCOC3(CCN(C(=O)C4CC=CC4)CC3)C2)cc1 ; IC50 = 40.9

Data point: CCCNC(=O)c1ccc2snnc2c1 ; IC50 = 169

Data point: COc1cccc(CCN)n1 ; IC50 = 192

Data point: CCOc1cccc(CN2CCCC(Nc3ccc(F)cc3)C2)c1O (stereo unspecified) ; IC50 = 46.1

Data point: CC1CCCCN1C(=O)c1coc(COc2cccc3cnccc23)n1 (stereo unspecified) ; IC50 = 24.4

Data point: CCCN1CCC(Nc2cc(-c3ccccc3)ccc2OC)CC1 ; IC50 = 32.9

Data point: Cc1nc(-c2cccc(N3CCC(N4CCCC4)CC3)c2)cs1 ; IC50 = 24.2

* * *

Answer each item with its documented IC50.
Test: microbe, parasite or virus in culture
Conditions: Mycobacterium tuberculosis, 96 h, read-out: pIC50 (converted)
Field: numeric (µM). Do not append units.

Data point: CCCNC(=O)c1cc(C(C)C)nc(N2CCCC2)n1 ; IC50 = 41.7

Data point: COCc1nn(Cc2ccccc2Cl)c(=O)o1 ; IC50 = 393

Data point: NCC1CCCN(c2nc(-c3ccccc3)nc3c2CCNCC3)C1 (configuration not stated) ; IC50 = 17.7

Data point: NCCN1CCN(c2cccc(C(F)(F)F)c2)CC1 ; IC50 = 260

Data point: CCn1ccc(C(=O)NC(C)c2ccccc2)n1 (configuration not stated) ; IC50 = 182

Data point: CCn1c(SCC(N)=O)nnc1-c1cc(Br)cs1 ; IC50 = 249

* * *

Answer each item with its documented IC50.
Experiment: microbe, parasite or virus in culture
Conditions: Mycobacterium tuberculosis, 72 h, read-out: pIC50 (converted)
Field: numeric (µM). Do not append units.

Data point: COC(=O)CCCC(=O)N1CCC2(CCCC2)C1 ; IC50 = 180

Data point: NCc1cccc(S(=O)(=O)NCc2cccc(F)c2)c1 ; IC50 = 232

Data point: Cc1ccc(C(=O)N2CCC3(CCCCO3)CC2)cn1 ; IC50 = 258

* * *

Test: microbe, parasite or virus in culture
Conditions: Mycobacterium tuberculosis, 96 h, read-out: pIC50 (converted)
Answer each item with its documented IC50.

Data point: COc1ccc(CNC(Cc2ccsc2)c2ccc(C)cn2)c(OC)c1 (stereo not drawn) ; IC50 = > 50.1 µM

Data point: CCCc1ccc(S(=O)(=O)N2CCNCC2)cc1 ; IC50 = > 501 µM

Data point: CCOC(=O)N1CCN(C(=O)C2CC(=O)N(c3ccccc3Br)C2)CC1 (stereo not drawn) ; IC50 = 9.89 µM

Data point: COC(=O)C(C)OC(=O)c1cccnc1SC (stereo not drawn) ; IC50 = > 501 µM

Data point: COc1ccccc1OC(C)CN (stereo not drawn) ; IC50 = 61.1 µM

Data point: O=C(CCC1CCCC1)N1CCC(c2cc3ncccc3c(O)n2)CC1 ; IC50 = 0.855 µM

Data point: NC(c1cncc(Br)c1)C1CC1 (stereo not drawn) ; IC50 = > 501 µM

Data point: Cc1cc2[nH]c(O)nc2cc1NCc1ccc(F)cc1 ; IC50 = > 50.1 µM

Data point: CN1CCN(c2ccnc(SCC(N)=O)n2)CC1 ; IC50 = > 501 µM

Data point: COC(=O)c1cc(C)nc(N2CCN(Cc3cc(C(C)C)no3)CC2)n1 ; IC50 = > 50.1 µM

Data point: Cn1cc(NC(=O)c2cc[nH]n2)cc(Cl)c1=O ; IC50 = > 50.1 µM

Data point: NC1CCCN(S(=O)(=O)C=Cc2cccc(Cl)c2)C1 (stereo not drawn) ; IC50 = 257 µM

Data point: COc1ccc2c(c1)NCC(C)O2 (stereo not drawn) ; IC50 = 214 µM
